Task for the reader: assign each of the following variants its reported protein stability index.
B1: INTS3 (parent)
chain: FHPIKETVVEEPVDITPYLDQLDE

Variants of: B1
TEST_SUMMARY: protein stability index of a GFP-peptide fusion (GPS, HEK-293T) (PSI 1-6); higher = more stable;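 note: lentivirally expressed fusions sorted by FACS into six bins by GFP to DsRed ratio, PSI derived from sequencing read proportions per bin multiplied by bin number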
APPLIED_CONDITIONS: c terminus: a fixed tail appended

// for each variant in input: emit protein stability index
1. L22Y
2. E6V
3. Y18N
4. V13R
5. V8C
6. E24N
7. L22G
8. T16W

Found:
1. 3.16
2. 1.87
3. 3.72
4. 2.58
5. 3.76
6. 3.17
7. 3.41
8. 2.33

// for each variant in input: emit protein stability index
1. I4E
2. I15T
3. D20T
4. D23F
5. V8Q
6. E6I

Found:
4.06
4.26
2.94
2.28
4.21
1.57

// for each variant in input: emit protein stability index
1. E24S
2. P17Q
3. P12Y
4. T16S
5. V13I

Found:
2.9
3.52
2.81
3.32
3.4
